Biological target: PD-1/PD-L1 (Homo sapiens, UniProt Q9NZQ7)
Construct: Recombinant human PD-L1 protein (19-238) with a Histag at the C-terminus; PD1-H5257 (PD-1)
Sequence (Q9NZQ7 19-238): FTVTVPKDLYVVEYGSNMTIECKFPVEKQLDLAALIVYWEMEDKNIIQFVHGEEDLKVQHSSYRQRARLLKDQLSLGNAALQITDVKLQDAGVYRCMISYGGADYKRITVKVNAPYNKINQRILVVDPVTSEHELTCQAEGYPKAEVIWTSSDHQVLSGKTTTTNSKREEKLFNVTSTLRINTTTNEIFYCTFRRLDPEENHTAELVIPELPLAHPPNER
Assay: PD-1/PD-L1 Homogeneous Time-Resolved Fluorescence (HTRF) Binding Assay
Settings: PD-1/PD-L1 HTRF activity; 3 nM PD1, 10 nM PD-L1, 25° C.
pIC50: −log10 of the molar value.
metric: pIC50

Check out these entries, answers already filled in.
Cc1nn2cc(-c3cccc(-c4cccc(-c5cc6c(=O)n(CCN[C@@H](CO)C(=O)O)c(C)nn6c5)c4Cl)c3Cl)cc2c(=O)n1CCN[C@@H](CO)C(=O)O | 7.00 to 8.00
O=C1CC[C@@H](Cn2ncn3cc(-c4cccc(-c5cccc(-c6cc7c(=O)n(C[C@@H]8CCC(=O)N8)ncn7c6)c5Cl)c4Cl)cc3c2=O)N1 | ≤ 7.00
Cc1cn2nc(-c3cccc(-c4cccc(-c5cc6c(=O)n(C[C@@H]7C[C@@H](O)CN7)c(C)cn6n5)c4Cl)c3Cl)cc2c(=O)n1C[C@@H]1C[C@@H](O)CN1 | > 8.00
Cc1cn2cc(-c3cccc(-c4cccc(-c5cc6c(=O)n(CCNCCO)c(C)cn6c5)c4Cl)c3Cl)cc2c(=O)n1CCNCCO | > 8.00
Cc1cn2nc(-c3cccc(-c4cccc(-c5cc6c(=O)n(CCN7C[C@@H](O)CC[C@H]7C(=O)O)c(C)cn6n5)c4Cl)c3Cl)cc2c(=O)n1CCN1C[C@@H](O)CC[C@H]1C(=O)O | ≤ 7.00

Task item: What measured pIC50 goes with CC(=O)NC[C@H](NCCn1c(C)cn2nc(-c3cccc(-c4cccc(-c5cc6c(=O)n(CCN[C@@H](CNC(C)=O)C(=O)O)c(C)cn6n5)c4Cl)c3Cl)cc2c1=O)C(=O)O ?
Reply: 7.00 to 8.00

Task item: Another compound: CC(=O)NCCNCc1cn2cc(-c3cccc(-c4cccc(-c5cc6c(=O)[nH]c(CNCCNC(C)=O)cn6c5)c4Cl)c3Cl)cc2c(=O)[nH]1
Reply: 7.00 to 8.00

Task item: Now try Cc1cn2cc(-c3cccc(-c4cccc(-c5cc6c(=O)n(CCNCC(O)CC(=O)O)c(C)cn6c5)c4Cl)c3Cl)cc2c(=O)n1CCNCC(O)CC(=O)O (stereo not drawn) .
Reply: ≤ 7.00

Task item: Same lookup for Cc1nn2cc(-c3cccc(-c4cccc(-c5cc6c(=O)n(C[C@@H]7CCC(=O)N7)c(C)nn6c5)c4Cl)c3Cl)cc2c(=O)n1C[C@@H]1CCC(=O)N1 , please.
Reply: > 8.00

Task item: Next compound: Cc1cn2cc(-c3cccc(-c4cccc(-c5cc6c(=O)n(CCN7CC[C@H](O)C7)c(C)cn6c5)c4Cl)c3Cl)cc2c(=O)n1CCN1CC[C@H](O)C1
Reply: 7.00 to 8.00

Task item: Now consider Cc1cn2cc(-c3cccc(-c4cccc(-c5cc6c(=O)n(CCN[C@@H](CO)C(=O)O)c(C)cn6c5)c4Cl)c3Cl)cc2c(=O)n1CCN[C@@H](CO)C(=O)O .
Reply: > 8.00

Task item: Next up: O=C1CCC(Cn2cnn3c(F)c(-c4cccc(-c5cccc(-c6cc7c(=O)n(CC8CCC(=O)N8)cnn7c6F)c5Cl)c4Cl)cc3c2=O)N1 (stereo not drawn)
Reply: > 8.00

Task item: Next entry: O=C1CC[C@@H](Cn2c(C3CC3)nn3cc(-c4cccc(-c5cccc(-c6cc7c(=O)n(C[C@@H]8CCC(=O)N8)c(C8CC8)nn7c6)c5Cl)c4Cl)cc3c2=O)N1
Reply: 7.00 to 8.00

Task item: Try Cc1cn2cc(-c3cccc(-c4cccc(-c5cc6c(=O)n(C[C@@H]7CCC(=O)N7)c(C)cn6c5)c4Cl)c3Cl)cc2c(=O)n1C[C@@H]1CCC(=O)N1 next.
Reply: > 8.00

Task item: Thanks! And Cc1cn2nc(-c3cccc(-c4cccc(-c5cc6c(=O)n(CCN7CCCC7CCO)c(C)cn6n5)c4Cl)c3Cl)cc2c(=O)n1CCN1CCCC1CCO (stereo not drawn) ?
Reply: 7.00 to 8.00

---

Measured pIC50 accompanies every entry in the list below.
Target: PD-1/PD-L1 (Homo sapiens, UniProt Q9NZQ7)
Construct: Recombinant human PD-L1 protein (19-238) with a Histag at the C-terminus; PD1-H5257 (PD-1)
Assay: PD-1/PD-L1 Homogeneous Time-Resolved Fluorescence (HTRF) Binding Assay
Details: PD-1/PD-L1 HTRF activity; 3 nM PD1, 10 nM PD-L1, 25° C.
pIC50: −log10 of the molar value.

Worked set:
Cn1c(CNCCO)cn2cc(-c3cccc(-c4cccc(-c5cc6c(=O)n(C)c(CNCCO)cn6c5)c4Cl)c3Cl)cc2c1=O | > 8.00
Cn1c(-c2cccc(-c3cccc(-c4nc5c(c(=O)n(C[C@@H]6CCC(=O)N6)c(=O)n5C)n4C)c3Cl)c2Cl)nc2c1c(=O)n(C[C@@H]1CCC(=O)N1)c(=O)n2C | ≤ 7.00

Task item: Which pIC50 is reported for this compound? CC(=O)NCCNCc1cn2cc(-c3cccc(-c4cccc(-c5cc6c(=O)n(C)c(CNCCNC(C)=O)cn6c5)c4Cl)c3Cl)cc2c(=O)n1C
Reply: 7.00 to 8.00
